Literature Ki values, system: C-X-C chemokine receptor type 1 (Homo sapiens, UniProt P25024).
Sequence (P25024 whole entry): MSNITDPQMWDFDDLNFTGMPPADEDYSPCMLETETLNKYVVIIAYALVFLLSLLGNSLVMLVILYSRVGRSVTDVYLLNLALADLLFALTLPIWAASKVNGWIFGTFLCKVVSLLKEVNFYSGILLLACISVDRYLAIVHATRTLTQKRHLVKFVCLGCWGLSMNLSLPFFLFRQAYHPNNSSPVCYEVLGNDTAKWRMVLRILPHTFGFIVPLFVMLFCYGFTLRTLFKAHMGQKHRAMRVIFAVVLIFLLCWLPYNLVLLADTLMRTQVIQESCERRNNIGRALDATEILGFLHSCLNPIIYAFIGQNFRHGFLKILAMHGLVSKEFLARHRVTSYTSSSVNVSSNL
recordedEndpoint: Ki (nM)

Examples with their reported Ki follow.
CN(C)C(=O)c1cccc(NC2=NS(=O)(=O)N=C2N[C@@H](c2ccc(Cl)o2)C(C)(C)C)c1O	129
CN(C)C(=O)c1cccc(Nc2c(N[C@@H](c3ccc4c(c3)OCO4)C(F)(F)F)c(=O)c2=O)c1O	8
CC[C@@H](NC1=NS(=O)(=O)NC1=Nc1cccc(C(=O)N(C)C)c1O)c1ccc2c(c1)OCCN2C	2800

A: CN(C)C(=O)c1cccc(Nc2c(N[C@@H](c3ccccc3)C(F)(F)F)c(=O)c2=O)c1O
B: CC(C)[C@@H](NC1=NS(=O)(=O)N=C1Nc1cccc(C(=O)N(C)C)c1O)c1cccc(F)c1
C: CC[C@@H](Nc1c(Nc2cccc(C(=O)N(C)C)c2O)c(=O)c1=O)c1cc(C)co1
D: CC[C@@H](Nc1c(Nc2cccc(C(=O)N(C)C)c2O)c(=O)c1=O)c1cc(C(C)C)co1
E: Cc1ccc([C@H](Nc2nsnc2Nc2cccc(C(=O)N(C)C)c2O)C(C)C)o1
Parameters: sort_field (Ki), sort_dir (desc). Form field (ranking): labels in requested order.
B, A, E, C, D
(B: 652 nM, A: 40 nM, E: 15 nM, C: 9 nM, D: 3 nM)

a: CC[C@@H](Nc1c(Nc2cccc(C(=O)N3CCCC3C(=O)O)c2O)c(=O)c1=O)c1ccccc1 (some centres undefined)
b: CC[C@@H](Nc1c(Nc2cccc(C(=O)N(C)C(C)C)c2O)c(=O)c1=O)c1ccccc1
// which entry reports the smaller Ki, a or b ? Provide the label of your selected option as the answer.
a
(a: 30 nM, b: 123 nM)

a: CN(C)C(=O)c1cccc(Nc2nsnc2NC(c2ccccc2)C(F)(F)F)c1O (centres undefined)
b: CC[C@@H](Nc1c(Nc2cccc(C(=O)N(C)C)c2O)c(=O)c1=O)c1cc(C2CCCCC2)co1
Would you kindly point out which of a and b has the smaller Ki figure? // caller expects the label of the chosen entry
a

---

Recorded Ki for compounds tested on C-X-C chemokine receptor type 1 (Homo sapiens), drawn from a number of studies.
recordedEndpoint: Ki (nM)

A selection of reference data follows.
CC[C@@H](Nc1c(Nc2cccc(C(=O)N3CCN(C)CC3)c2O)c(=O)c1=O)c1ccccc1	41
CC(C)c1coc([C@H](Nc2c(Nc3cccc(C(=O)N(C)C)c3O)c(=O)c2=O)C2CC2)c1	10
CN(C)C(=O)c1cccc(Nc2c(N[C@@H](c3cc(Cl)co3)C(F)(F)F)c(=O)c2=O)c1O	20
CCC(C)c1coc([C@@H](CC)Nc2c(Nc3cccc(C(=O)N(C)C)c3O)c(=O)c2=O)c1 (some centres undefined)	7.6
CC[C@@H](Nc1n[s+]([O-])nc1Nc1cccc(C(=O)N(C)C)c1O)c1ccccc1 (some centres undefined)	1220
CN(C)C(=O)c1cccc(Nc2nsnc2N[C@@H](c2ccc3c(c2)OCO3)C(C)(C)C)c1O	52
CCc1ccoc1[C@@H](CC)Nc1c(Nc2cccc(C(=O)N(C)C)c2O)c(=O)c1=O	379

a: C[C@H](F)[C@@H](Nc1c(Nc2cccc(C(=O)N(C)C)c2O)c(=O)c1=O)c1ccco1
b: CC[C@@H](Nc1c(Nc2cc(C)cc(C(=O)N(C)C)c2O)c(=O)c1=O)c1cccs1
Two entries are listed, a and b . Which one carries the higher Ki? Select an item and report its label.
b
(b: 2800 nM, a: 43 nM)
